- TARGET_OF_ASSAY: HLA-A*02:06
- ASSAY_SUMMARY: IEDB peptide-MHC binding, purified MHC/competitive/radioactivity; filed as Kd, often an IC50 or EC50 that approximates it; bounds were set here for any values at or beyond the usual limits of such assays
- COND: source organism: SARS coronavirus Tor2
Each entry below carries its reported log10 of Kd.
Scale: log10; quantity: Kd; unit before log: nM

{"CHAIN": "VMFNGVTFST", "TARGET_OF_ASSAY": "HLA-A*02:06", "log10 of Kd": 2.12}
{"CHAIN": "QLMCQPILLL", "TARGET_OF_ASSAY": "HLA-A*02:06", "log10 of Kd": 2.51}
{"CHAIN": "ALVCYIVMPV", "TARGET_OF_ASSAY": "HLA-A*02:06", "log10 of Kd": 0.47}
{"CHAIN": "FLAFLLFLVL", "TARGET_OF_ASSAY": "HLA-A*02:06", "log10 of Kd": 3.30}
{"CHAIN": "AIYVFCISL", "TARGET_OF_ASSAY": "HLA-A*02:06", "log10 of Kd": 1.68}
{"CHAIN": "FLTNKLLLFA", "TARGET_OF_ASSAY": "HLA-A*02:06", "log10 of Kd": 0.87}

Consider the record given below.
So what does the record say about log10 of Kd for YALCTLLHL ?
0.18

----------
- TARGET_OF_ASSAY: HLA-A*11:01
- ASSAY_SUMMARY: IEDB peptide-MHC binding, purified MHC/competitive/fluorescence; filed as Kd, often an IC50 or EC50 that approximates it; bounds were set here for any values at or beyond the usual limits of such assays
- COND: source organism: Robiginitalea biformata HTCC2501
PROPERTY: pKd
Would you please state pKd, meaning minus log10 of the concentration in mol/L, as a bare number?

So what does the record say about pKd for PLAKGLFHK ?
5.62

----------
- TARGET_OF_ASSAY: HLA-C*05:01
- ASSAY_SUMMARY: IEDB peptide-MHC binding, purified MHC/direct/fluorescence; filed as Kd, often an IC50 or EC50 that approximates it; bounds were set here for any values at or beyond the usual limits of such assays
- COND: source organism: Human alphaherpesvirus 1
pKd: −log10 of the molar value.
PROPERTY: pKd

So what does the record say about pKd for MPYAAHDPI ?
≤ 4.70

----------
- TARGET_OF_ASSAY: HLA-B*08:01
- ASSAY_SUMMARY: IEDB peptide-MHC binding, purified MHC/direct/fluorescence; filed as Kd, often an IC50 or EC50 that approximates it; bounds were set here for any values at or beyond the usual limits of such assays
- COND: source organism: Giardia lamblia ATCC 50803
PROPERTY: Kd (nM)
Number only, in nM; omit the unit.

So what does the record say about Kd for EMKLRQKQL ?
38

----------
- TARGET_OF_ASSAY: HLA-B*27:05
- ASSAY_SUMMARY: IEDB peptide-MHC binding, purified MHC/competitive/fluorescence; filed as Kd, often an IC50 or EC50 that approximates it; bounds were set here for any values at or beyond the usual limits of such assays
- COND: source organism: Salmonella enterica subsp. enterica serovar Typhi
PROPERTY: Kd

So what does the record say about Kd for LSEEANWAF ?
≥ 20 µM

----------
Each entry below carries its reported pKd.
- TARGET_OF_ASSAY: HLA-A*02:01
- ASSAY_SUMMARY: IEDB peptide-MHC binding, purified MHC/competitive/radioactivity; filed as Kd, often an IC50 or EC50 that approximates it; bounds were set here for any values at or beyond the usual limits of such assays
- COND: source organism: Dengue virus 1 Singapore/S275/1990
Would you please state pKd, meaning minus log10 of the concentration in mol/L, as a bare number?

Below, each entry is followed by its recorded pKd result.
{"CHAIN": "LLMLLPTAL", "pKd": 8.12}
{"CHAIN": "MLLILCTSQI", "pKd": 7.12}

So what does the record say about pKd for TLTAAVLMLV ?
8.40

So what does the record say about pKd for GLLCVMASSV ?
7.94

----------
- TARGET_OF_ASSAY: HLA-B*46:01
- ASSAY_SUMMARY: IEDB peptide-MHC binding, purified MHC/competitive/fluorescence; filed as Kd, often an IC50 or EC50 that approximates it; bounds were set here for any values at or beyond the usual limits of such assays
- COND: source organism: Bacillus anthracis str. A0488
pKd: −log10 of the molar value.
Each entry below carries its reported pKd.

{"CHAIN": "IQKGMFVVK", "VALUE": "≤ 4.70"}

Consider the record given below.
Notebook entry, HLA-B*46:01 assay: pKd of SYMLQGLRK = ?
≤ 4.70

----------
- TARGET_OF_ASSAY: HLA-B*39:01
- ASSAY_SUMMARY: IEDB peptide-MHC binding, purified MHC/direct/fluorescence; filed as Kd, often an IC50 or EC50 that approximates it; bounds were set here for any values at or beyond the usual limits of such assays
- COND: source organism: Influenza A virus (A/Moscow/10/1999(H3N2))
PROPERTY: Kd (nM)
Number only, in nM; omit the unit.

So what does the record say about Kd for FRGRGVFEL ?
62.1

----------
- TARGET_OF_ASSAY: HLA-B*57:01
- ASSAY_SUMMARY: IEDB peptide-MHC binding, purified MHC/direct/fluorescence; filed as Kd, often an IC50 or EC50 that approximates it; bounds were set here for any values at or beyond the usual limits of such assays
- COND: source organism: Campylobacter jejuni
PROPERTY: Kd (µM)
Number only, in µM; omit the unit.

So what does the record say about Kd for KSNKIRGRM ?
0.988

----------
Each entry below carries its reported Kd.
- TARGET_OF_ASSAY: HLA-A*68:01
- ASSAY_SUMMARY: IEDB peptide-MHC binding, purified MHC/competitive/radioactivity; filed as Kd, often an IC50 or EC50 that approximates it; bounds were set here for any values at or beyond the usual limits of such assays
- COND: source organism: Dengue virus 1 Brazil/97-11/1997
Number only, in nM; omit the unit.

{"CHAIN": "VTVASAAQR", "UNIT_SPEC": "nM", "Kd": 48.7}

So what does the record say about Kd for TALAFHLTTR ?
101

----------
- TARGET_OF_ASSAY: HLA-A*33:01
- ASSAY_SUMMARY: IEDB peptide-MHC binding, purified MHC/competitive/radioactivity; filed as Kd, often an IC50 or EC50 that approximates it; bounds were set here for any values at or beyond the usual limits of such assays
- COND: source organism: SARS coronavirus Tor2
Field 'label' (enum: yes / no). Set to yes when Kd is strictly under 2 µM; else no.

Known results for sequences:
{"CHAIN": "SVVQKPVDVK", "TARGET_OF_ASSAY": "HLA-A*33:01", "CLASS": "no"}
{"CHAIN": "FTTSLSLHK", "TARGET_OF_ASSAY": "HLA-A*33:01", "CLASS": "yes"}

Input SLYMAISPK ; condition: Kd strictly below 2 µM. Does it hold?
no

Input SFYVYANGGR ; condition: Kd strictly below 2 µM. Does it hold?
yes

Input ALSEAREHLK ; condition: Kd strictly below 2 µM. Does it hold?
no

Input AAYYFMKFR ; condition: Kd strictly below 2 µM. Does it hold?
yes

Input TSSTCMMCYK ; condition: Kd strictly below 2 µM. Does it hold?
yes

Input ALCTLLHLHR ; condition: Kd strictly below 2 µM. Does it hold?
yes

Input RQFHQKLLK ; condition: Kd strictly below 2 µM. Does it hold?
no

Input VVYRAFDIY ; condition: Kd strictly below 2 µM. Does it hold?
no

Input RIDGAHLTK ; condition: Kd strictly below 2 µM. Does it hold?
no

Input EQLQLLMPLK ; condition: Kd strictly below 2 µM. Does it hold?
no

Input KLLQTLVLK ; condition: Kd strictly below 2 µM. Does it hold?
no

Input KLSAGVEFLK ; condition: Kd strictly below 2 µM. Does it hold?
no

Input TLLPLTQYNR ; condition: Kd strictly below 2 µM. Does it hold?
no

Input ASCDAIMTR ; condition: Kd strictly below 2 µM. Does it hold?
yes

Input KLSYGIATVR ; condition: Kd strictly below 2 µM. Does it hold?
no

Input KLFAAETLK ; condition: Kd strictly below 2 µM. Does it hold?
no

----------
- TARGET_OF_ASSAY: HLA-A*24:02
- ASSAY_SUMMARY: IEDB peptide-MHC binding, purified MHC/competitive/radioactivity; filed as Kd, often an IC50 or EC50 that approximates it; bounds were set here for any values at or beyond the usual limits of such assays
- COND: source organism: Mammarenavirus juninense
pKd: −log10 of the molar value.
PROPERTY: pKd

So what does the record say about pKd for KAEVSMHEV ?
≤ 4.11
